# Tested on: Plenodomus lingam
# measurement_protocol: Antifungal activity against Leptosphaeria maculans isolate BJ-125/UAMH-9410 assessed as mycelial growth inhibition at 0.5 mM incubated under constant light for 5 days by mycelial radial growth bioassay
# Assay type: functional
# measurement_setup: isolate BJ-125/UAMH-9410, 120 h, read-out: GI
Label rule, in plain words: inhibition of growth at 500 µM of 30% and up is YES, under 30% is NO.

In: Please check the record NCCc1c[nH]c2ccccc12 and state if its inhibition of growth at 500 µM is at or above 30%.
Out: NO

In: Please check the record OCCCc1c[nH]c2ccccc12 and state if its inhibition of growth at 500 µM is at or above 30%.
Out: NO

In: Please check the record NCCCc1c[nH]c2ccccc12 and state if its inhibition of growth at 500 µM is at or above 30%.
Out: NO

In: Please check the record CSC(=S)OCCc1c[nH]c2ccccc12 [METHYL TRYPTOPHOLDITHIOCARBAMATE] and state if its inhibition of growth at 500 µM is at or above 30%.
Out: YES

In: Please check the record c1ccc2[nH]cnc2c1 and state if its inhibition of growth at 500 µM is at or above 30%.
Out: YES

In: Please check the record CSC(=S)NCCc1c[nH]c2ccccc12 [METHYL TRYPTAMINEDITHIOCARBAMATE] and state if its inhibition of growth at 500 µM is at or above 30%.
Out: YES

In: Please check the record COn1c(CNC(C)=O)cc2ccccc21 and state if its inhibition of growth at 500 µM is at or above 30%.
Out: NO

In: Please check the record COn1c(CN)cc2ccccc21 and state if its inhibition of growth at 500 µM is at or above 30%.
Out: NO

In: Please check the record CC(=O)NCCCc1c[nH]c2ccccc12 and state if its inhibition of growth at 500 µM is at or above 30%.
Out: NO

In: Please check the record CC(=O)NCc1cc2ccccc2[nH]1 and state if its inhibition of growth at 500 µM is at or above 30%.
Out: YES

In: Please check the record CC(=O)NCCc1c[nH]c2ccccc12 and state if its inhibition of growth at 500 µM is at or above 30%.
Out: NO

In: Please check the record COn1c(CNC(=S)SC)cc2ccccc21 and state if its inhibition of growth at 500 µM is at or above 30%.
Out: YES

====

# Test system: Plenodomus lingam
# measurement_protocol: Antifungal activity against Leptosphaeria maculans isolate BJ-125/UAMH-9410 assessed as mycelial growth inhibition at 0.5 mM incubated under constant light for 5 days by mycelial radial growth bioassay
# Assay type: functional
# measurement_setup: isolate BJ-125/UAMH-9410, 120 h, read-out: GI
measured_metric: inhibition of growth at 500 µM (%)
Quick note: give the figure in %, leave out the unit.

In: Form field: reported inhibition of growth at 500 µM of CS/C(S)=N/CCCc1c[nH]c2ccccc12
Out: 67

In: Form field: reported inhibition of growth at 500 µM of CC(=O)NCc1ccc(-c2ccccc2)cc1
Out: 30

In: Form field: reported inhibition of growth at 500 µM of CSC(=S)NCc1cc2ccccc2[nH]1
Out: 43

In: Form field: reported inhibition of growth at 500 µM of CSC(=S)NCc1ccc(-c2ccccc2)cc1
Out: 46

In: Form field: reported inhibition of growth at 500 µM of CSC(=S)OCCCc1c[nH]c2ccccc12
Out: 31

In: Form field: reported inhibition of growth at 500 µM of CSC(=S)NCc1c[nH]c2ccccc12
Out: 55

In: Form field: reported inhibition of growth at 500 µM of OCCc1c[nH]c2ccccc12
Out: 29

In: Form field: reported inhibition of growth at 500 µM of NCc1cc2ccccc2[nH]1
Out: 33
